run description: in vitro
conditions: human
readout kind: viability at 2 h, 100 µM (%)
Give bare numbers, in %.

# viability at 2 h, 100 µM (compound: O=C(O)Cc1cc(I)c(Oc2ccc(O)c(I)c2)c(I)c1 ) is 86.3

* * *

system tested: human NTCP (Homo sapiens, UniProt Q14973)
Sequence (Q14973 1-349): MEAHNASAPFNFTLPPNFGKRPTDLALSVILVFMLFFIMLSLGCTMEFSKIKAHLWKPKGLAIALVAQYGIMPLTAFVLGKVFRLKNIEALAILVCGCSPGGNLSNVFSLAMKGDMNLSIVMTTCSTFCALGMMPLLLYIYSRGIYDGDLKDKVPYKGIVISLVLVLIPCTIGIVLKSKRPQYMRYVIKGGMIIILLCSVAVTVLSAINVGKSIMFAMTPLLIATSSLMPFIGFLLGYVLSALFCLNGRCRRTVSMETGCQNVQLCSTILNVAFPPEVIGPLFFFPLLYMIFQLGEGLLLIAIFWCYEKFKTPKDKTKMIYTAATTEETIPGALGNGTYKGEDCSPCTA
run description: Screening taurocholate uptake assay (96-well, [14C]taurocholate, 10 µM drug)
conditions: Prestwick library screen, taurocholate uptake, 10 µM drug
Counter-ions that a name gives are not always drawn. Non-standard residues stand in square brackets, D forms with d. Residues, ends and D or L forms follow the SMILES beside them. *: point of attachment. Sta = CC(C)C[C@H](N)[C@@H](O)CC(=O)O; Isovaleryl = CC(C)CC(=O)*
Hi there, I'd appreciate the recorded B-score functional assay for every entry that follows.
One number for each entry.

Look over these answered cases.
- compound: "O=C1c2cccc3c2[C@H](CCC3)CN1[C@@H]1CN2CCC1CC2 [Palonosetron hydrochloride]"
  reported measurement: 1.95
- compound: "CN(C)CCCO[C@@H]1[C@H]2OC(C)(C)O[C@H]2O[C@@H]1[C@H](O)CO [Amiprilose hydrochloride]"
  reported measurement: 0.017
- compound: "COC(=O)Nc1nc2cc(C(=O)c3ccc(F)cc3)ccc2[nH]1"
  reported measurement: 1.185
- compound: "CCCN1C[C@H](CSC)C[C@@H]2c3cccc4[nH]cc(c34)C[C@H]21 [Pergolide mesylate]"
  reported measurement: -0.089
- compound: "CO/N=C(\\C(=O)N[C@@H]1C(=O)N2C(C(=O)O)=C(COC(N)=O)CS[C@H]12)c1ccco1 [Cefuroxime sodium salt]"
  reported measurement: 0.233

Record B-score functional assay per entry; entries follow.
1. CCn1cc(C(=O)O)c(=O)c2cc3c(cc21)OCO3
2. CC(C)CC(=O)N[C@H](C(=O)N[C@H](C(=O)N[C@@H](CC(C)C)[C@@H](O)CC(=O)N[C@@H](C)C(=O)N[C@@H](CC(C)C)[C@@H](O)CC(=O)O)C(C)C)C(C)C [Pepstatin A] (Isovaleryl-VV[Sta]A[Sta]-OH)
3. OC(c1cc(C(F)(F)F)nc2c(C(F)(F)F)cccc12)C1CCCCN1 (stereo not drawn) [Mefloquine hydrochloride]
4. c1coc(CNc2ncnc3nc[nH]c23)c1
5. CC(=O)O[C@]1(C(C)=O)CC[C@H]2[C@@H]3C=C(Cl)C4=CC(=O)[C@@H]5C[C@@H]5[C@]4(C)[C@H]3CC[C@@]21C [Cyproterone acetate]
6. C[C@]12CCC(=O)C=C1C=C[C@@H]1[C@@H]2CC[C@@]2(C)[C@H]1CC[C@@]2(O)CCC(=O)[O-].[K+] [Canrenoic acid potassium salt]
7. CCCc1cc(C(N)=S)ccn1 [Prothionamide]

-0.139
2.688
1.734
2.357
-0.245
0.356
-0.17

Record B-score functional assay per entry; entries follow.
1. O=C1c2c(O)ccc(O)c2C(=O)c2c(NCCNCCO)ccc(NCCNCCO)c21 [Mitoxantrone dihydrochloride]
2. CCN(CC)C(=O)N1CCN(C)CC1 [Diethylcarbamazine citrate]
3. CCn1cc(C(=O)O)c(=O)c2cnc(N3CCNCC3)nc21

1. 4.449
2. 0.671
3. -0.002

* * *

system tested: human NTCP (Homo sapiens)
run description: Screening taurocholate uptake assay (96-well, [14C]taurocholate, 10 µM drug)
conditions: screening taurocholate uptake, 10 µM drug
Where a name gives a salt, the structure may show the parent alone.
Hi there, I'd appreciate the recorded B-score functional assay for every entry that follows.
One number for each entry.

- molecule: "CC[N+](C)(CC)CCC[n+]1c(-c2ccccc2)c2cc(N)ccc2c2ccc(N)cc21.[I-].[I-] [Propidium iodide]"
  system tested: "human NTCP (Homo sapiens)"
  B-score functional assay: -1.35
- molecule: "Clc1ccc2c(c1)C(N1CCNCC1)=Nc1ccccc1O2"
  system tested: "human NTCP (Homo sapiens)"
  B-score functional assay: 0.589
- molecule: "CCCOc1cc(N)ccc1C(=O)OCCN(CC)CC [Propoxycaine hydrochloride]"
  system tested: "human NTCP (Homo sapiens)"
  B-score functional assay: -2.561
- molecule: "N#Cc1ccc(C(c2ccc(C#N)cc2)n2cncn2)cc1"
  system tested: "human NTCP (Homo sapiens)"
  B-score functional assay: 1.169

Record B-score functional assay per entry; entries follow.
1. Nc1c2ccccc2nc2ccccc12
2. CN1[C@@H]2CC[C@H]1C[C@@H](OC(=O)c1c[nH]c3ccccc13)C2 [Tropisetron HCl]
3. CC(COc1ccccc1)N(CCCl)Cc1ccccc1 (stereo not drawn) [Phenoxybenzamine hydrochloride]
4. Clc1cccc(Cl)c1N=C1NCCN1 [Clonidine hydrochloride]
5. COCCOC(=O)C1=C(C)NC(C)=C(C(=O)OC/C=C/c2ccccc2)C1c1cccc([N+](=O)[O-])c1 (stereo not drawn)

1. -0.079
2. -1.094
3. -0.06
4. 0.689
5. 0.219

* * *

system tested: human NTCP (Homo sapiens, UniProt Q14973)
run description: Screening taurocholate uptake assay (96-well, [14C]taurocholate, 10 µM drug)
conditions: combined ranking from functional and binding screening assays
Counter-ions that a name gives are not always drawn.
Hi there, I'd appreciate the recorded Ranking score for every entry that follows.

Look over these answered cases.
- compound: "NNCCc1ccccc1 [Phenelzine sulfate]"
  Ranking score: 418.784
- compound: "O=C1O[C@H]([C@@H](O)CO)C(O)=C1O"
  Ranking score: 365.334
- compound: "CO/N=C(\\C(=O)N[C@@H]1C(=O)N2C(C(=O)O)=C(COC(C)=O)CS[C@H]12)c1csc(N)n1 [Cefotaxime sodium salt]"
  Ranking score: 382.157
- compound: "CC1(C)O[C@@H]2C[C@H]3[C@@H]4C[C@H](F)C5=CC(=O)CC[C@]5(C)[C@H]4[C@@H](O)C[C@]3(C)[C@]2(C(=O)CO)O1 [Flurandrenolide]"
  Ranking score: 407.676
- compound: "COc1ccc(CN2CCNCC2)c(OC)c1OC [Trimetazidine dihydrochloride]"
  Ranking score: 350.668
- compound: "CN(C)CCN(Cc1ccc(Cl)cc1)c1ccccn1.Cl [Chloropyramine hydrochloride]"
  Ranking score: 387.298
- compound: "COC(=O)[C@H](c1ccccc1Cl)N1CCc2sccc2C1"
  Ranking score: 419.199
- compound: "CNCCCC1c2ccccc2C=Cc2ccccc21 [Protriptyline hydrochloride]"
  Ranking score: 390.896
- compound: "COc1ccc2c(c1)C(=O)N(CCc1ccc(S(=O)(=O)NC(=O)NC3CCCCC3)cc1)C(=O)C2(C)C"
  Ranking score: 336.107
- compound: "COc1cc([S+](C)[O-])ccc1-c1nc2ncccc2[nH]1 (centres unmarked)"
  Ranking score: 402.209

Record Ranking score per entry; entries follow.
1. Cc1ccc(Cl)c(Nc2ccccc2C(=O)[O-])c1Cl.O.[Na+]
2. CC(=O)OCC1=C(C(=O)O)N2C(=O)[C@@H](NC(=O)Cc3cccs3)[C@H]2SC1 [Cephalothin sodium salt]
3. CC(=O)CC(c1ccccc1)c1c(O)c2ccccc2oc1=O (centres unmarked)
4. COc1nc(C)nc(Cl)c1N=C1NCCN1

386.518
427.172
391.491
427.083

Record Ranking score per entry; entries follow.
1. O=c1oc2ccccc2c(O)c1Cc1c(O)c2ccccc2oc1=O
2. C[C@H](CCC(=O)O)[C@H]1CC[C@H]2[C@@H]3C(=O)C[C@@H]4CC(=O)CC[C@]4(C)[C@H]3CC(=O)[C@]12C [Dehydrocholic acid]
3. Cc1c(N(C)C)c(=O)n(-c2ccccc2)n1C
4. CN(C)CCOC(C)(c1ccccc1)c1ccccn1 (centres unmarked) [Doxylamine succinate]
5. CC(=O)N1CCN(c2ccc(OCC3COC(Cn4ccnc4)(c4ccc(Cl)cc4Cl)O3)cc2)CC1 (centres unmarked)
6. CC(CCc1ccccc1)NC(C)C(O)c1ccc(O)cc1 (centres unmarked)
7. C(#CCN1CCCC1)CN1CCCC1.Cl.Cl [Tremorine dihydrochloride]

[403.485, 309.304, 343.366, 393.435, 349.5, 363.793, 382.832]

* * *

system tested: human NTCP (Homo sapiens, UniProt Q14973)
Sequence (Q14973 1-349): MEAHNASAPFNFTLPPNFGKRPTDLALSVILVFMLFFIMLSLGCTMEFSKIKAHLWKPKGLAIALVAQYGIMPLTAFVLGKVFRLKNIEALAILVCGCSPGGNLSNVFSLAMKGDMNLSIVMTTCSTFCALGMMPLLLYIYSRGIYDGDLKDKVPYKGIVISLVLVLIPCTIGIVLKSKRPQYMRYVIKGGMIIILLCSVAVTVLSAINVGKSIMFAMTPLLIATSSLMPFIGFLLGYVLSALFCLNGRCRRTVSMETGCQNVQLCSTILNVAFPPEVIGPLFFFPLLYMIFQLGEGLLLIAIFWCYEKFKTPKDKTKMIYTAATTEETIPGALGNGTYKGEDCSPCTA
run description: Screening taurocholate uptake assay (96-well, [14C]taurocholate, 10 µM drug)
conditions: combined ranking from functional and binding assay B-scores
Hi there, I'd appreciate the recorded Ranking score for every entry that follows.
Give bare numbers.

Look over these answered cases.
- compound: "Cl.O=C(O)/C=C/c1ccc(Cn2ccnc2)cc1 [Ozagrel hydrochloride]"
  system tested: "human NTCP (Homo sapiens, UniProt Q14973)"
  Ranking score: 1118.41
- compound: "Nc1ncnc2c1ncn2[C@@H]1O[C@H](COP(=O)(O)O)[C@@H](O)[C@H]1O.O [Adenosine 5'-monophosphate monohydrate]"
  system tested: "human NTCP (Homo sapiens, UniProt Q14973)"
  Ranking score: 1091.98

Now turn to the next compound.
# Ranking score (compound: COc1ccc(CC2c3cc(OC)c(OC)cc3CC[N+]2(C)CCC(=O)OCCCCCOC(=O)CC[N+]2(C)CCc3cc(OC)c(OC)cc3C2Cc2ccc(OC)c(OC)c2)cc1OC (stereo not drawn) [Atracurium besylate] ) is 978.724
